Origin of the recorded values: PubChem BioAssay AID1845197

Below is a list of entries, each paired with its recorded viability, T/C value.
- System: 349418-098-R tumor spheroid viability
- assay procedure: Anticancer human tumor 349418-098-R patient-derived lung adenocarcinoma cell line growth inhibition
- details: second compound 30 pM; first compound 1 µM; hits give low values; spheroids with HUVEC and MSC
Please reply with the bare figure in % and do not write the unit itself.

Recorded results for 3 compounds are shown here.
| compound | unit of measure | viability, T/C |
| --- | --- | --- |
| CC1COCCN1c1cc(-c2ccnn2C)c2ccnc(-c3ccn[nH]3)c2n1 (stereo unspecified) + COc1cc2c(cc1O)CCNC21CSC2c3c(OC(C)=O)c(C)c4c(c3C(COC1=O)N1C(O)C3Cc5cc(C)c(OC)c(O)c5C(C21)N3C)OCO4 | % | 12.1 |
| CC(C)n1c(=O)n(C)c2cnc3cc(F)c(-c4ccc(OCCCN5CCCCC5)nc4)cc3c21 + COc1cc2c(cc1O)CCNC21CSC2c3c(OC(C)=O)c(C)c4c(c3C(COC1=O)N1C(O)C3Cc5cc(C)c(OC)c(O)c5C(C21)N3C)OCO4 | % | 99.6 |
| COc1ccc([C@@H](O)c2cc(-c3ncnc4cc(N5CCOCC5)ccc34)c(F)cc2Cl)nn1 + COc1cc2c(cc1O)CCNC21CSC2c3c(OC(C)=O)c(C)c4c(c3C(COC1=O)N1C(O)C3Cc5cc(C)c(OC)c(O)c5C(C21)N3C)OCO4 | % | 98.6 |

Specify the recorded viability, T/C for COc1cc(C)[nH]c(=O)c1CN1CCc2c(Cl)cc(C(OC)C3COC3)c(Cl)c2C1=O (stereo unspecified) + COc1cc2c(cc1O)CCNC21CSC2c3c(OC(C)=O)c(C)c4c(c3C(COC1=O)N1C(O)C3Cc5cc(C)c(OC)c(O)c5C(C21)N3C)OCO4 , system: 349418-098-R tumor spheroid viability. 97.2

Report the value of viability, T/C obtained on 349418-098-R tumor spheroid viability for [2H]c1nc(C)nc([2H])c1-c1cc(NC[C@@H](C)c2cccc3c(C(=O)NC)ccnc23)ncn1 + COc1cc2c(cc1O)CCNC21CSC2c3c(OC(C)=O)c(C)c4c(c3C(COC1=O)N1C(O)C3Cc5cc(C)c(OC)c(O)c5C(C21)N3C)OCO4 . 107

State measured viability, T/C of the compound Cc1cc(C)c(CNC(=O)c2cc(-c3ccc(CN4CCOCC4)cc3)cc3c2cnn3C2CCCC2)c(=O)[nH]1 + COc1cc2c(cc1O)CCNC21CSC2c3c(OC(C)=O)c(C)c4c(c3C(COC1=O)N1C(O)C3Cc5cc(C)c(OC)c(O)c5C(C21)N3C)OCO4 with 349418-098-R tumor spheroid viability. 119

---

- Test system: 349418-098-R tumor spheroid viability
- assay procedure: Anticancer human tumor 349418-098-R cell line growth inhibition;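 further: spheroids exposed to compound for 7 days before measurement; percent of vehicle control viability with 100% = DMSO-treated spheroids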
- details: second compound 94.9 pM; first compound 3.16 µM; hits give low values; spheroids with HUVEC and MSC
- Experimental: Multicellular complex tumor spheroid response to DNA repair inhibitors in combination with DNA-damaging drugs This study explores the anticancer activities of DNA-damaging drugs and inhibitors of DNA damage repair, both as single agents and in combinations. […] Twenty-six patient-derived or established malignant cell lines were evaluated representing sarcoma, melanoma, small cell lung cancer (SCLC), non-small cell lung cancer (NSCLC), as well as bladder, ovarian and pancreatic cancers. […]
viability, T/C reference

| compound | measured result |
| --- | --- |
| Cc1cc(C)c(CNC(=O)c2cc(-c3ccc(CN4CCOCC4)cc3)cc3c2cnn3C2CCCC2)c(=O)[nH]1 + COc1cc2c(cc1O)CCNC21CSC2c3c(OC(C)=O)c(C)c4c(c3C(COC1=O)N1C(O)C3Cc5cc(C)c(OC)c(O)c5C(C21)N3C)OCO4 | 115% |

Proceeding to the next compound to report its viability, T/C.
Tell me viability, T/C reported for [2H]c1nc(C)nc([2H])c1-c1cc(NC[C@@H](C)c2cccc3c(C(=O)NC)ccnc23)ncn1 + COc1cc2c(cc1O)CCNC21CSC2c3c(OC(C)=O)c(C)c4c(c3C(COC1=O)N1C(O)C3Cc5cc(C)c(OC)c(O)c5C(C21)N3C)OCO4 103%
